In this section, each of the variants is paired with its reported protein stability index.
B1: BCL2L13 (parent)
chain: YIIQQGGWGTVFSLESEEEEYPGI

- Variants of: B1
- EXPERIMENT_SUMMARY: protein stability index of a GFP-peptide fusion (GPS, HEK-293T) (PSI 1-6); higher = more stable;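 further: lentivirally expressed fusions sorted by FACS into six bins by GFP to DsRed ratio, PSI derived from sequencing read proportions per bin multiplied by bin number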
- CONDITION_INFO: c terminus: a fixed tail appended
# output: bare number, no unit

Worked set:
SEQUENCE_DATA	protein stability index
YIIQQGGWGTTFSLESEEEEYPGI [V11T]	1
YIIQQGGWGTVFDLESEEEEYPGI [S13D]	2.72
YIIQQGGWGTVFSLESEEDEYPGI [E19D]	1.19
HIIQQGGWGTVFSLESEEEEYPGI [Y1H]	3.19
YIIQQGGWGTVFSLEYEEEEYPGI [S16Y]	2.61

Consider the record given below.
Looking up YIIQQGGWGTVFSLESEEEEYPHI [G23H] , I found its protein stability index recorded as 1

Recorded values, source the supplement of paper PMC10567573.
